Biological target: Tyrosyl-tRNA synthetase, putative (Trypanosoma cruzi (strain CL Brener))
Experiment: Trypanosoma cruzi tyrosyl tRNA synthetase (TcYRS) _High Tyrosine SOP
Assay type: functional
Set-up: scale not given: in the data most compounds retested in dose-response had high values
Details: 30 µM
READOUT_KIND: Percent Effect (%)
Give the quantity in %, number only.

Reported Percent Effect of O=C(Nc1cc(F)ccc1OCC1CCCO1)c1ccccn1 (stereo unspecified) : 2.86

Please fill in: Percent Effect reported for O=C(NCc1cc[nH]n1)N(CCCO)C1CCc2ccccc21 (stereo unspecified) = 3.68

Field Percent Effect (entry NC(=O)CN1CCC(C(=O)N2CCCC(OCc3cccnc3)C2)CC1 (stereo unspecified) ) reads 4.79

Per the record, "COC(=O)C1CCN(C(=O)CN2CCN(c3cccc(C)c3)CC2)CC1" has Percent Effect of 5.21

// sample "CN1CCN(c2cc(CNC(=O)c3ccc(=O)n(C)c3)ccn2)CC1" , its Percent Effect was -0.478

Percent Effect reported for this compound COC(=O)CC(c1ccc(OC)c(OC)c1)c1oc(C)cc(=O)c1O (stereo unspecified) : -0.532

Record CCc1nc(CN(C(C)=O)C2CCN(Cc3cnc(C)cn3)C2)no1 (stereo unspecified) , field Percent Effect: 4.43

The measured Percent Effect associated with CC(=O)N(Cc1noc(C)n1)C1CCN(CCOc2ccccc2)C1 (stereo unspecified) reads 7.84

Consider "CCC(=O)NCCc1cc(N2CCN(C(C)=O)CC2)nc(C2CC2)n1" . Its measured Percent Effect is 2.15

# compound "O=C([C@H]1C[C@H]2OCC[C@H]2N(C(=O)c2ccncc2)C1)N1CCCCO1" ; its Percent Effect = 4.17

Briefly, Percent Effect measured for Cc1cc(-c2nn(C)c(Cl)c2CN2CCOCC(O)C2)no1 (stereo unspecified) : 2.66

---

For each of the compounds below, state its Percent Effect.
Target: Tyrosyl-tRNA synthetase, putative (Trypanosoma cruzi (strain CL Brener)) (UniProt Q4DSP6)
Sequence (Q4DSP6 as listed by the source): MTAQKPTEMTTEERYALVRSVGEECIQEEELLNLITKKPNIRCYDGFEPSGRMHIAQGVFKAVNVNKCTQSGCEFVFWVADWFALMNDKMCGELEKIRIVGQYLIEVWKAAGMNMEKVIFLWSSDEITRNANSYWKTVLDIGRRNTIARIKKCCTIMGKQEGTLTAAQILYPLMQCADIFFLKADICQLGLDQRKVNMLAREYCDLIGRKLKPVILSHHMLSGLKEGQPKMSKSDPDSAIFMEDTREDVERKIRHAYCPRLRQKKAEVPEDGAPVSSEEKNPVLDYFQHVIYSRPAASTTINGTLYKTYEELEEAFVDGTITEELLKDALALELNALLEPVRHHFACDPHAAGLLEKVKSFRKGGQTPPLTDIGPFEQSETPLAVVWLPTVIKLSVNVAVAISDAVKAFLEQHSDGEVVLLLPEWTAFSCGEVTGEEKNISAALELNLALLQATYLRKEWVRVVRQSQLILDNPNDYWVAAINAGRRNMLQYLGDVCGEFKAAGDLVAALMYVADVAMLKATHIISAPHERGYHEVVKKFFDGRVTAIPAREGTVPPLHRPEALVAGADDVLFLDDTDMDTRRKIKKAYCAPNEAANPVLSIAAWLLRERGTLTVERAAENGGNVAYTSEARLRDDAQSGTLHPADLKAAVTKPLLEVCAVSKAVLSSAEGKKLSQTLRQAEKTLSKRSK
Test: Trypanosoma cruzi tyrosyl tRNA synthetase (TcYRS) _High Tyrosine SOP
Assay type: functional
Design: scale not given: in the data most compounds retested in dose-response had high values
Conditions: 30 µM
Quick reminder: number only, in %, skip the unit.

Record "COc1ncccc1NC(=O)c1cccc(C)n1" . Reported Percent Effect: 9.09

Kindly note the recorded Percent Effect for CCC(=O)N1CCC(Cc2ccccc2-c2ccccc2)(C(N)=O)C1 (centres undefined) , which is 1.06

// Percent Effect lookup, compound = "O=C(NCCCN1CCc2ccccc2C1)c1cccnc1O" , result: 2.63

Measured Percent Effect of "CCn1cc(CN(C)S(=O)(=O)c2cc(Cl)ccc2Cl)cn1" : 0

So, CC1CCCCN1C(=O)CN1CCN(c2ccc3nncn3n2)CC1 (centres undefined) ? Its Percent Effect was 6.22

compound N#Cc1ccccc1OCCN1CCCC1Cn1cccn1 (centres undefined) , Percent Effect observed: 2.46

Measured Percent Effect of "O=C(CN(C1=NCCCC1)c1ccccc1)c1ccccc1" : -3.19

Short answer for "Cc1noc(C)c1CN(C)C(=O)c1ccc(NC2CC2)nc1" : Percent Effect was 9.36

According to the records, this compound "CN1CCC(Cc2cc(Nc3ncccn3)ncn2)CC1" displays Percent Effect of 4.3

Summary for this compound, OC(CNCCn1cccn1)c1ccc2c(c1)OCCO2 (centres undefined) : Percent Effect is 4.74

Recorded Percent Effect (compound "Cc1oncc1C(=O)NCc1cc(=O)n2c(n1)CN(C)CCC2" ): 2.63

So for "Cc1cc(C)n(CCCNC(=O)[C@@H](C)NC(=O)OC(C)(C)C)n1" , the logged Percent Effect turned out to be 3.19

Looking up "CCn1cc(NC(=O)C2CCN(CCOC(C)C)CC2)cn1" , I see its Percent Effect listed as 2.46

The reported value for CC(Cn1ccnc1)NC(=O)N1CCN(Cc2cccnc2)CC1 (centres undefined) in terms of Percent Effect is 7.35

Consider "CC(=O)c1cccc(OCC(=O)NS(=O)(=O)c2ccc(C)s2)c1" . Its measured Percent Effect is 3.45

For record "O=C(Nc1cccnc1)[C@H]1CO[C@H]2CCN(c3ncc(F)cn3)C[C@H]2C1" the listed Percent Effect is 8.33

Notebook: CCOCC(O)CN1CCN(C(=O)c2cccnc2OC)CC1 (centres undefined) , Percent Effect read as 3.88

Value of measured Percent Effect for the entry COc1ccc(OC)c(C2CCN(Cc3nc(C)n4ccccc34)C2)c1 (centres undefined) : 13.3

compound COC(=O)C(NC(=O)COC1CCCC1)c1cc(F)ccc1F (centres undefined) , Percent Effect observed: 4.85

For reference, reported Percent Effect for "COc1ccc(CNCc2ccnc(N3CCOCC3)c2)cc1OC" stands at 6.22

The recorded Percent Effect for "Cc1noc(C)c1CN1CCN(Cc2ccncc2)c2ncccc2C1" is 7.45

Reported Percent Effect of O=C(NCC1CCOC1)c1ccc(OCC(F)(F)F)nc1 (centres undefined) : 3.35

Entry "COCc1nc(C(=O)NS(=O)(=O)c2ccc(C)cc2C)cs1" — recorded Percent Effect = 2.39

The compound identified as Cc1nc(-c2ccsc2)ccc1C(=O)NCCC1CCCO1 (centres undefined) registered its Percent Effect at 4.41

Recorded result, CS(=O)(=O)CCC(=O)N1CCC2(CCCN(C3CCOCC3)C2=O)C1 (centres undefined) , Percent Effect: 6.25

Recorded result, "Cc1cc(C)n(Cc2ccc(C(=O)NCCN3CCOCC3)cc2)n1" , Percent Effect: 7.37

Reported Percent Effect of O=C(c1cc[nH]n1)N1CCCC(c2cccc(-n3ccnc3)n2)C1 (centres undefined) : 5.29

So, Cc1ccc(C)c(CNC(=O)NC(C)(C(=O)O)c2ccco2)c1 (centres undefined) ? Its Percent Effect was 5.42

Noted for CCN1CCN(CC(O)c2ccc(F)cc2)CC1 (centres undefined) : its Percent Effect reads 5.42

For Cc1nc(C2CCCN(C(=O)c3ccco3)C2)no1 (centres undefined) the compound record lists Percent Effect as 1.04

// Percent Effect lookup, compound = "CCn1cc(N2Cc3nc(N4CCOCC4)ncc3C2=O)cn1" , result: 2.12

Kindly note the recorded Percent Effect for O=C(Cc1csc(-c2ccc(Cl)cc2)n1)NC(C(=O)O)c1ccccc1 (centres undefined) , which is 1.06

Input "CN(C)C(=O)N1CCN(Cc2nnc(C(C)(C)C)o2)CC1" . Output Percent Effect: -1.59

The compound "CN(c1ccc(C(=O)NCCCN2CCOCC2)c(Cl)c1)S(C)(=O)=O" showed Percent Effect equal to 5.38

// Percent Effect lookup, compound = "CN(C)c1ncc(-c2cc(C(=O)O)n(CC3CC3)c2)cn1" , result: 5.94

"CCC(=O)Nc1ccc2c(c1)CN(C(=O)c1ccco1)CC2" has a reported Percent Effect of 3.17

Value of measured Percent Effect for the entry "CCNc1cc2c(nn1)CCN(C(=O)Cc1c(C)noc1C)C2" : 0.493

Measured Percent Effect of Cc1cc(C(=O)N2CCCCC2C)ccc1NCCCO (centres undefined) : 3.88

Value of measured Percent Effect for the entry CCc1nc(C2CCCN2Cc2nc3ccccc3o2)no1 (centres undefined) : -2.86

compound Cc1n[nH]c(=O)c2c(NC(=O)CN3CCCC(C(F)(F)F)C3)oc(C)c12 (centres undefined) , Percent Effect observed: 3.35

The compound identified as CCc1[nH]ncc1C(=O)N1CCCC(n2cccn2)C1 (centres undefined) registered its Percent Effect at 4.74

# compound "CCc1nc(CN2CCN(C(=O)COCc3ccccc3)CC2)no1" ; its Percent Effect = 2.15

The compound listed as "CC(C)c1nc(CN2CCCN(Cc3nnc(C4CC4)o3)CC2)no1" shows Percent Effect equal to 3.68

For record Cc1c(Br)cccc1C(=O)NC(C)CN1CCCC1=O (centres undefined) the listed Percent Effect is 1.07

Entry "COc1cc(C(=O)Nc2c(C)noc2C)ccc1C" — recorded Percent Effect = 4.43

The reported Percent Effect of the compound Cc1nn(C)c(N2CCOCC2)c1CNC1CCc2cc(F)ccc21 (centres undefined) was 6.86

// Percent Effect value for "Cc1nn(C)c(C)c1NC(=O)CCn1ncc2c(C)cccc21" : 6.45

The compound "CS(=O)(=O)NCCNC(=O)C1(c2cccc(Cl)c2)CC1" showed Percent Effect equal to 3.16

Entry "COc1ncc(C2(O)CCN(Cc3cccs3)CC2)c(OC)n1" , Percent Effect reported as 8.47
